In this section, each of the molecules is paired with its reported relative viability.
- Test system: NCI-H460
- assayNotes: relative viability (nuclei count vs DMSO), 5 days (fraction); higher = more cells survive
- experimentalParameters: first compound 0.006325 µM
In your answer, state the number alone without any accompanying words.

Below, 2 molecules whose answers are already recorded.
| molecule | assayedSystem | measuredAttribute | measuredNumber |
| --- | --- | --- | --- |
| CCNC(=O)c1noc(-c2cc(C(C)C)c(O)cc2O)c1-c1ccc(CN2CCOCC2)cc1 [Luminespib] + Cc1nc(NC(=O)N2CCC[C@H]2C(N)=O)sc1-c1ccnc(C(C)(C)C(F)(F)F)c1 [Alpelisib] (partner 2 µM) | NCI-H460 | relative viability | 0.447 |
| CCNC(=O)c1noc(-c2cc(C(C)C)c(O)cc2O)c1-c1ccc(CN2CCOCC2)cc1 [Luminespib] + O=C(c1cc(Cc2n[nH]c(=O)c3ccccc23)ccc1F)N1CCN(C(=O)C2CC2)CC1 [Olaparib] (partner 8 µM) | NCI-H460 | relative viability | 0.37 |

# evaluate next
Entry CCNC(=O)c1noc(-c2cc(C(C)C)c(O)cc2O)c1-c1ccc(CN2CCOCC2)cc1 [Luminespib] + CS(=O)(=O)CCNCc1ccc(-c2ccc3ncnc(Nc4ccc(OCc5cccc(F)c5)c(Cl)c4)c3c2)o1 [Lapatinib] (partner 2 µM) ; relative viability = 0.871

====

- Tested on: HCC-44
- assayNotes: relative viability (nuclei count vs DMSO), 5 days (fraction); higher = more cells survive
- experimentalParameters: first compound 0.2 µM
measuredAttribute: relative viability
Lab note: record the figure alone, no unit after it.

Notebook: Cc1csc(=NC2CCCCC2)n1/N=C/c1ccc(O)c(O)c1O [MIM1] + CC(C)C[C@H](NC(=O)[C@H](Cc1ccccc1)NC(=O)c1cnccn1)B(O)O [Bortezomib] (partner 0.002 µM) , relative viability read as 0.879

CCNC(=O)c1noc(-c2cc(C(C)C)c(O)cc2O)c1-c1ccc(CN2CCOCC2)cc1 [Luminespib] + Nc1ncn([C@H]2C[C@H](O)[C@@H](CO)O2)c(=O)n1 [Decitabine] (partner 2 µM) has a reported relative viability of 0.863

# relative viability of CCNC(=O)c1noc(-c2cc(C(C)C)c(O)cc2O)c1-c1ccc(CN2CCOCC2)cc1 [Luminespib] + N=C(N)NC(=N)NCCc1ccccc1 [Phenformin] (partner 250 µM) = 0.11

====

Below, each entry is listed alongside its reported relative viability.
- Tested on: UMC-11
- assayNotes: relative viability (nuclei count vs DMSO), 5 days (fraction); higher = more cells survive
- experimentalParameters: first compound 0.02 µM
Hey, just send me the number, nothing else.

Would you please look over these solved cases?
| molecule | assayedSystem | measuredNumber |
| --- | --- | --- |
| CCNC(=O)c1noc(-c2cc(C(C)C)c(O)cc2O)c1-c1ccc(CN2CCOCC2)cc1 [Luminespib] + CS(=O)(=O)CCNCc1ccc(-c2ccc3ncnc(Nc4ccc(OCc5cccc(F)c5)c(Cl)c4)c3c2)o1 [Lapatinib] (partner 2 µM) | UMC-11 | 0.395 |
| CCNC(=O)c1noc(-c2cc(C(C)C)c(O)cc2O)c1-c1ccc(CN2CCOCC2)cc1 [Luminespib] + Nc1ncn([C@H]2C[C@H](O)[C@@H](CO)O2)c(=O)n1 [Decitabine] (partner 2 µM) | UMC-11 | 0.334 |

// next item, relative viability requested
So, CN1CCN(CCOc2cc(OC3CCOCC3)c3c(Nc4c(Cl)ccc5c4OCO5)ncnc3c2)CC1 [Saracatinib] + CC1(C)CCC(c2ccc(Cl)cc2)=C(CN2CCN(c3ccc(C(=O)NS(=O)(=O)c4ccc(N[C@H](CCN5CCOCC5)CSc5ccccc5)c(S(=O)(=O)C(F)(F)F)c4)cc3)CC2)C1 [Navitoclax] (partner 0.5 µM) ? Its relative viability was 0.318

====

- Tested on: NCI-H661
- assayNotes: relative viability (nuclei count vs DMSO), 5 days (fraction); higher = more cells survive
- experimentalParameters: first compound 0.003162 µM
# note: boundary value 0.8 maps to -1; relative viability below it maps to 1

Below, 5 compounds whose answers are already recorded.
| compound | cat |
| --- | --- |
| Cc1cn(-c2cc(NC(=O)c3ccc(C)c(Nc4nccc(-c5cccnc5)n4)c3)cc(C(F)(F)F)c2)cn1 [Nilotinib] + C[C@@H](Oc1cc(-c2cnn(C3CCNCC3)c2)cnc1N)c1c(Cl)ccc(F)c1Cl [Crizotinib] (partner 1 µM) | -1 |
| Cc1cn(-c2cc(NC(=O)c3ccc(C)c(Nc4nccc(-c5cccnc5)n4)c3)cc(C(F)(F)F)c2)cn1 [Nilotinib] + Cc1nc(NC(=O)N2CCC[C@H]2C(N)=O)sc1-c1ccnc(C(C)(C)C(F)(F)F)c1 [Alpelisib] (partner 2 µM) | 1 |
| Cc1cn(-c2cc(NC(=O)c3ccc(C)c(Nc4nccc(-c5cccnc5)n4)c3)cc(C(F)(F)F)c2)cn1 [Nilotinib] + C[C@]1(O)C[C@@H](c2nc(-c3ccc4ccc(-c5ccccc5)nc4c3)c3c(N)nccn32)C1 [Linsitinib] (partner 1 µM) | 1 |
| Cc1cn(-c2cc(NC(=O)c3ccc(C)c(Nc4nccc(-c5cccnc5)n4)c3)cc(C(F)(F)F)c2)cn1 [Nilotinib] + CS(=O)(=O)N1CCN(Cc2cc3nc(-c4cccc5[nH]ncc45)nc(N4CCOCC4)c3s2)CC1 [Pictilisib] (partner 1 µM) | 1 |
| Cc1cn(-c2cc(NC(=O)c3ccc(C)c(Nc4nccc(-c5cccnc5)n4)c3)cc(C(F)(F)F)c2)cn1 [Nilotinib] + CC(C)C[C@H](NC(=O)[C@H](Cc1ccccc1)NC(=O)c1cnccn1)B(O)O [Bortezomib] (partner 0.002 µM) | -1 |

Now consider a different compound.
Is the reported relative viability for Cc1cn(-c2cc(NC(=O)c3ccc(C)c(Nc4nccc(-c5cccnc5)n4)c3)cc(C(F)(F)F)c2)cn1 [Nilotinib] + Nc1nc2[nH]cc(CCc3ccc(C(=O)N[C@@H](CCC(=O)O)C(=O)O)cc3)c2c(=O)[nH]1 [Pemetrexed] (partner 0.2 µM) strictly below 0.8?
-1

====

- System: LXF-289
- assayNotes: relative viability (nuclei count vs DMSO), 5 days (fraction); higher = more cells survive
- experimentalParameters: first compound 6.325 µM
Reported relative viability by item:
# respond with the number and nothing more

Take a look at these entries with their results.
| compound | measuredNumber |
| --- | --- |
| Cc1csc(=NC2CCCCC2)n1/N=C/c1ccc(O)c(O)c1O [MIM1] + CS(=O)(=O)N1CCN(Cc2cc3nc(-c4cccc5[nH]ncc45)nc(N4CCOCC4)c3s2)CC1 [Pictilisib] (partner 1 µM) | 0.676 |
| Cc1csc(=NC2CCCCC2)n1/N=C/c1ccc(O)c(O)c1O [MIM1] + O=C(c1cc(Cc2n[nH]c(=O)c3ccccc23)ccc1F)N1CCN(C(=O)C2CC2)CC1 [Olaparib] (partner 8 µM) | 0.915 |

Let us move to another entry and its relative viability.
Entry Cc1csc(=NC2CCCCC2)n1/N=C/c1ccc(O)c(O)c1O [MIM1] + NC(=O)Nc1cc(-c2cccc(F)c2)sc1C(=O)N[C@H]1CCCNC1 [AZD7762] (partner 0.2 µM) under LXF-289 had relative viability of 0.85

====

Reported relative viability values follow for various compounds
- System: EPLC-272H
- assayNotes: relative viability (nuclei count vs DMSO), 5 days (fraction); higher = more cells survive
- experimentalParameters: first compound 0.003162 µM
Number only, no unit.

Before answering, review these 3 worked examples.
| compound | relative viability |
| --- | --- |
| Cc1cn(-c2cc(NC(=O)c3ccc(C)c(Nc4nccc(-c5cccnc5)n4)c3)cc(C(F)(F)F)c2)cn1 [Nilotinib] + COc1cccc2cc(-c3nc([C@H]4CC[C@H](C(=O)O)CC4)n4ncnc(N)c34)[nH]c12 [OSI-027] (partner 0.5 µM) | 0.275 |
| Cc1cn(-c2cc(NC(=O)c3ccc(C)c(Nc4nccc(-c5cccnc5)n4)c3)cc(C(F)(F)F)c2)cn1 [Nilotinib] + CC(=O)Nc1cccc(-n2c(=O)n(C3CC3)c(=O)c3c(Nc4ccc(I)cc4F)n(C)c(=O)c(C)c32)c1 [Trametinib] (partner 0.02 µM) | 0.233 |
| Cc1cn(-c2cc(NC(=O)c3ccc(C)c(Nc4nccc(-c5cccnc5)n4)c3)cc(C(F)(F)F)c2)cn1 [Nilotinib] + Cc1nc(Nc2ncc(C(=O)Nc3c(C)cccc3Cl)s2)cc(N2CCN(CCO)CC2)n1 [Dasatinib] (partner 0.075 µM) | 0.343 |

With those in mind, consider the next compound.
Query Cc1cn(-c2cc(NC(=O)c3ccc(C)c(Nc4nccc(-c5cccnc5)n4)c3)cc(C(F)(F)F)c2)cn1 [Nilotinib] + CC(=O)c1c(C)c2cnc(Nc3ccc(N4CCNCC4)cn3)nc2n(C2CCCC2)c1=O [Palbociclib] (partner 0.5 µM) yields relative viability of 0.345
